Entry source: patent US8815891B2

Measured IC50 by item
target: PARP-1 enzyme (Homo sapiens (Human), UniProt P09874); experiment: Poly(ADP-ribose)polymerase [PARP-1] enzyme inhibitory activity (Trevigen PARP Assay kit); assay type: biochemical; settings: dihydrochloride; read-out: PARP-1 Inhibitory activity IC50
Sequence (P09874 whole entry): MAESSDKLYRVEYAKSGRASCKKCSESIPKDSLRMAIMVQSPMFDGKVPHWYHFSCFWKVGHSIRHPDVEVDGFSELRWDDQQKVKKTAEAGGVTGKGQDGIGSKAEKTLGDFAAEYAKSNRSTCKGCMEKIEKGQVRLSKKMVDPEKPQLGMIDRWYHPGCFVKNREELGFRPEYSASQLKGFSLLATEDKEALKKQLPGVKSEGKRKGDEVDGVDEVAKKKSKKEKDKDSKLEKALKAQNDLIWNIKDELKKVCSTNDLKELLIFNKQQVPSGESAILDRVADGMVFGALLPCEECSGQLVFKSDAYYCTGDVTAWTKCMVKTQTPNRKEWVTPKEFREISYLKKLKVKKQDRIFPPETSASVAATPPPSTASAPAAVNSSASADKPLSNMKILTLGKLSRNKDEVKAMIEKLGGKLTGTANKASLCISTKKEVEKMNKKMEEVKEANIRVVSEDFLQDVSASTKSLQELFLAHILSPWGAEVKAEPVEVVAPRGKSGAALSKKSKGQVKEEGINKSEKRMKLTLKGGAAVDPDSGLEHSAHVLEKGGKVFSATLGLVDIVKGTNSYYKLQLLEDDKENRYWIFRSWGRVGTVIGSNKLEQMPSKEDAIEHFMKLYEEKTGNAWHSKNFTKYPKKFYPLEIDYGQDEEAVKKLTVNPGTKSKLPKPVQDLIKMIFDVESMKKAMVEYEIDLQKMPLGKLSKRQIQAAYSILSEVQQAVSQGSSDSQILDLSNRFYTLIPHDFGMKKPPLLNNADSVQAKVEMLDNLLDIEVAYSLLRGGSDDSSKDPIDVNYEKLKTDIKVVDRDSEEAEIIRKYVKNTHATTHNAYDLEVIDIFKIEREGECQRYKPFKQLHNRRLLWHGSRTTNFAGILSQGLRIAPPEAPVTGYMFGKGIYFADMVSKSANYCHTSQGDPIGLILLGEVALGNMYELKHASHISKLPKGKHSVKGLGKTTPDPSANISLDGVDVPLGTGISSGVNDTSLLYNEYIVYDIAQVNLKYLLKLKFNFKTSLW
Where a name gives a salt, the structure may show the parent alone.

compound	IC50
O=c1[nH]c2cc(CN3CCCC3)ccc2c2c1CCCN2 [Example 44, dihydrochloride]	60 nM
O=c1[nH]c2cc(CN3CCCC3)ccc2c2c1CCCN2 [Example 67, dihydrochloride]	760 nM

* * *

Measured Temozolomide PF50 by item
Tested on: HT-29 Cell line
Assay: Cell growth inhibition of cancer cell lines (SRB assay), HT-29
Format: cell-based
Conditions: 2 μM compound
Experimental: The tests on cell growth inhibitory activity were performed with respect to A549 (US, ATCC), SK-OV-3 (Korea Research Institute of Chemical Technology; KRICT), HT-29 (US, ATCC), MCF-7 cell (US, ATCC), using Sulforhodamin-B <SRB> Assay (1989, US National Cancer Institute (NCI)) which was developed to measure the in vitro anti-cancer activity of the drug. […] 100 μl of 10 mM tris-buffer was then added to dissolve the dye, and the optical density (OD) at 520 nm was measured with the microplate reader. […]
Structures can show the parent of a compound that is named as a salt.
recorded-endpoint: Temozolomide PF50

compound	observed-value
COc1cc(CN(C)C)cc2[nH]c(=O)c3c(c12)NCCC3 [Example 72, dihydrochloride]	>5.2
CCOc1cc(CN2CCOCC2)cc2[nH]c(=O)c3c(c12)NCCC3 [Example 101, dihydrochloride]	>1.9
COc1cccc2[nH]c(=O)c3c(c12)NCCC3.Cl [Example 2]	>1.5
